Measured Mean of the CD80 binding signal in the presence of the antibody accompanies every entry in the list below.
# test.target: T1, full-length human CTLA4 expressed on cells (human, UniProt P16410 36-223)
# T1 construct: whole, on cells; also called HEK293F/hCTLA-4 cells; HEK293F/hCTLA4 cells
# T1 sequence (looked up): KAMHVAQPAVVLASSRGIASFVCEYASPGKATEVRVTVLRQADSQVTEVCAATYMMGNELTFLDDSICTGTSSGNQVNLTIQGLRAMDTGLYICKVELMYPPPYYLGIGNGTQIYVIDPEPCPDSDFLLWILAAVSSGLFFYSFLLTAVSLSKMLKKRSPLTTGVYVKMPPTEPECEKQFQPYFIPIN
# protocol: flow cytometry blocking: HEK293F cells with human CTLA4, 100 nM antibody, then 100 nM CD80-Fc-Bio (blocked ligand); PBSA panel: Mean 157692, 26.3%
measure: Mean of the CD80 binding signal in the presence of the antibody

1. TY21591 (antibody, V domains shown, human IgG1 (hIgG1) from Fab hit B15756) VH: EVQLVESGGGLVQPGGSLRLSCAASGFSLSTGGVAVSWIRQAPGKGLEWIGEIYHSGSTYYSPSLKSRVTISRDNSKNTLYLQLNSLRAEDTAVYYCARRIATATYFDYWGQGTLVTVSS VL: DIQLTQSPSSLSASVGDRVTITCRASQTVFSRYLAWYQQKPGKAPKLLIYDASNRATGIPSRFSGSGSGTDFTLTISSLQPEDFATYYCQQSYYWPPWTFGQGTKVEIK	68500
2. TY21589 (antibody, V domains shown, human IgG1 (hIgG1) from Fab hit B15740) VH: EVQLVESGGGLVQPGGSLRLSCAASGFTFSDYWIHWVRQAPGKGLEWIGWISPSGGGTKYAQKFQGRVTISRDNSKNTLYLQLNSLRAEDTAVYYCARGAYEFDYWGQGTLVTVSS VL: DIQLTQSPSSLSASVGDRVTITCRASQSVSSRFLAWYQQKPGKAPKLLIYDASNRATGIPSRFSGSGSGTDFTLTISSLQPEDFATYYCQQSYPTPLTFGQGTKVEIK	110000
3. TY21587 (antibody, V domains shown, human IgG1 (hIgG1) from Fab hit B15722) VH: EVQLVESGGGLVQPGGSLRLSCAASGFTFSDYGIHWVRQAPGKGLEWIGEIYHSGSTYYSPSLKSRVTISRDNSKNTLYLQLNSLRAEDTAVYYCARDVAPGSSGYYDGFDFWGQGTLVTVSS VL: DIQLTQSPSSLSASVGDRVTITCRASQGIGSSLAWYQQKPGKAPKLLIYDASNRATGIPSRFSGSGSGTDFTLTISSLQPEDFATYYCQQYDQWPPWTFGQGTKVEIK	85700
4. TY21588 (antibody, V domains shown, human IgG1 (hIgG1) from Fab hit B15732) VH: EVQLVESGGGLVQPGGSLRLSCAASGYSISSGYHWDWIRQAPGKGLEWVSGISGYGGSTYYADSVKGRFTISRDNSKNTLYLQLNSLRAEDTAVYYCARHSYYGSGNFDYWGQGTLVTVSS VL: DIQLTQSPSSLSASVGDRVTITCRASESVDFFGKSFLHWYQQKPGKAPKLLIYDASNLETGVPSRFSGSGSGTDFTLTISSLQPEDFATYYCQQSYSWPPTFGQGTKVEIKR	8180

Where these numbers come from: patent US20190241662A1
